- System tested: Transient receptor potential cation channel subfamily V member 1 (Homo sapiens)
- Sequence (Q8NER1 whole entry): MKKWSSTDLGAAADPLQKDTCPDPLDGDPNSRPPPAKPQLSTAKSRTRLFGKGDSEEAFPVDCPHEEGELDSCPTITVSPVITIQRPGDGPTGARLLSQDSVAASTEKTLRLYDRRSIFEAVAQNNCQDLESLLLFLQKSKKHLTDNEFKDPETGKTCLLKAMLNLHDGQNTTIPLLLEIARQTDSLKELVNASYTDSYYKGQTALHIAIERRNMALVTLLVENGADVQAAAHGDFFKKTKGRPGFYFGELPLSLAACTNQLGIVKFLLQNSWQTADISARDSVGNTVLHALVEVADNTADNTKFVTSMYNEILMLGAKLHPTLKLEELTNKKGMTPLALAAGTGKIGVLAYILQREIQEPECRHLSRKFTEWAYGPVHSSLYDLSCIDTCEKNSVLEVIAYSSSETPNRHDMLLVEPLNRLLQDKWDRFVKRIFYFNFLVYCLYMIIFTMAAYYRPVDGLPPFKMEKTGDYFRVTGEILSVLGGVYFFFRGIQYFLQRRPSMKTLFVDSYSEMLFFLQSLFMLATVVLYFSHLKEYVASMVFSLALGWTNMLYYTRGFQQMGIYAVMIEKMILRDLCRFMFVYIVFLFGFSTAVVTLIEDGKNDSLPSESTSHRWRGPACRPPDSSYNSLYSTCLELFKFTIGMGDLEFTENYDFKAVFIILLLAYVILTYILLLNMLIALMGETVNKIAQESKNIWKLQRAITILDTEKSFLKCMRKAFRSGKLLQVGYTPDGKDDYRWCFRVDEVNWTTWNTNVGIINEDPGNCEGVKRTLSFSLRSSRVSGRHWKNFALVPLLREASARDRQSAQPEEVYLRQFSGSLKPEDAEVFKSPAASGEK
- Assay info: Activity at human TRPV1 in HEK cells assessed by measuring capsaicin-induced calcium level by FLIPR technology
pEC50: −log10 of the molar value.
Property name: pEC50

Please review the entries below; each comes with its answer.
1) CCCCCCCCCCc1ccc(C(=O)Nc2cccnc2)cc1 < 4.52
2) CCCCCc1ccc(CC(=O)Nc2cccnc2)cc1 < 5.30

Kindly review the next compound as well.
Looking up CCCCCc1ccc(NC(=O)c2cccnc2)cc1 , I found its pEC50 recorded as < 5.30

---

As shown below, each of these compounds has a reported log10 Ki value.
- System tested: Transient receptor potential cation channel subfamily V member 1 (Homo sapiens)
Response schema: value (number) is log10 of Ki in units of nM.

Please review the entries below; each comes with its answer.
1. CN(CC1CCCCC1)c1ccc(C(=O)Nc2cnc3ccccc3c2)cc1 1.20
2. CCCc1ccc(C(=O)Nc2cnc3ccccc3c2)cc1 1.78
3. CCCCCCCc1ccc(C(=O)Nc2cnc3ccccc3c2)cc1 3.55
4. CCCCCCCCCCc1ccc(C(=O)Nc2cccnc2)cc1 2.78
5. CCCCCc1ccc(CC(=O)Nc2cccnc2)cc1 3.86

Considering CCCCc1ccc(C(=O)Nc2cnc3ccccc3c2)cc1 , its log10 Ki with Transient receptor potential cation channel subfamily V member 1 (Homo sapiens) was recorded as 1.72

Considering CCCCCCCCN(C)c1ccc(C(=O)Nc2cnc3ccccc3c2)cc1 , its log10 Ki with Transient receptor potential cation channel subfamily V member 1 (Homo sapiens) was recorded as 1.18
